protocol_notes: qHTS for Inhibitors of human tyrosyl-DNA phosphodiesterase 1 (TDP1): qHTS in cells in presence of CPT; also: nearly all actives have a fitted effect of over 55% in size
measurement_parameters: chicken DT40 Tdp1-/-;hTDP1 cells + 20 nM CPT, ATP luminescence, 48 h; series mostly up to 46.2 µM
In all, about 420,000 compounds went through this assay and about 50,000 (12%) were called active. About 26% were inconclusive and are not listed. Calls follow the shape of the dose curve; as a rule, active = well fitted inhibition curve with a large enough effect; inconclusive = small, poorly fitted or top-dose-only effect; inactive = flat fitted curve, though single readings scatter. What follows is part of a selection rich in actives, with near analogues and random picks from the rest.
Pick from True = active, False = inactive when you respond.

So what was the verdict on `CCOC(=O)CNC(=O)/C(=C\c1ccc(F)cc1)NC(=O)c1ccccc1` in this test? False

Also check `CC(=O)c1c(C)oc2ccc(NS(=O)(=O)c3ccccc3)cc12` False

Also check `Cc1ccc(C(=O)NCC(=O)OCC(=O)Nc2cccc(S(=O)(=O)N3CCCC3)c2)cc1C` False

Also check `CCOC(=O)C(=CNc1cccc(C)n1)C(=O)OCC` False

Also check O=C(NCCCN1CCOCC1)C1CCCN(S(=O)(=O)N2CCCCC2)C1 (stereo unspecified) False

Also check `COc1ccc2oc(C)c(NC(C)=O)c2c1` False

Also check `CCn1c(NC(=O)c2ccccc2)c(-c2cccs2)c(=O)c2ccccc21` True

Also check `CC(C)(C)NC(=O)Cn1cnc2cc([N+](=O)[O-])ccc2c1=O` False

Also check `Cc1ccc(S(=O)(=O)Nc2nc(N)n(-c3ccccc3)n2)cc1` False

Also check CCCC1C(=O)N2C(N(C)C)=Nc3ccc(C)cc3N2C1=O (stereo unspecified) False

Also check `COc1ccc(S(=O)(=O)Nc2ccc3oc(C)c(C(C)=O)c3c2)cc1` True
